For each of the compounds below, state its remaining binding at 1 µM.
- target-of-assay: ZAP70 (Homo sapiens)
- Construct: purchased Eurofins DiscoverX KINOMEscan (scanTK)
- Sequence (P43403 whole entry): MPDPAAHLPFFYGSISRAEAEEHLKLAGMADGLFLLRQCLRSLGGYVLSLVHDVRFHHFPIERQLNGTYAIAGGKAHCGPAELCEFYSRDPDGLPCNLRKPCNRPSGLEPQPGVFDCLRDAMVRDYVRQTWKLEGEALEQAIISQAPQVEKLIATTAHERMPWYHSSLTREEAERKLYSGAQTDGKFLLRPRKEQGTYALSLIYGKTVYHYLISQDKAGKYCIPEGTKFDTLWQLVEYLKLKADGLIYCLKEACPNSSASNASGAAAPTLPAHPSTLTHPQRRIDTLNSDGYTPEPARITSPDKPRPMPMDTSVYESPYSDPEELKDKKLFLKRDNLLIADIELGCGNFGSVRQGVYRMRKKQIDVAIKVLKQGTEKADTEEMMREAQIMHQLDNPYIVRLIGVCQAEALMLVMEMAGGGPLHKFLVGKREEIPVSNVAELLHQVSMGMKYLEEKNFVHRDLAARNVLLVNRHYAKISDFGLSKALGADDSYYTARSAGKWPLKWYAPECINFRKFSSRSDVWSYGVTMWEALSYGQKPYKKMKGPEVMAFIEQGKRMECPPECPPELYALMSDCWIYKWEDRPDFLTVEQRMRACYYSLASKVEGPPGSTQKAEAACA
- assay-notes: KINOMEscan ScanTK
- Assay type: binding
- cond: @1000nM, read-out: %Control
Write down the numeric answer in % and omit the unit.

Report remaining binding at 1 µM for COC(=O)c1cnc(S(C)(=O)=O)nc1N1CCCC(n2nc(-c3ccc(Oc4ccccc4)cc3)c3c(N)ncnc32)C1 (stereo not shown)
94

Provide one value: measured remaining binding at 1 µM of CNC(=O)c1cnc(S(C)(=O)=O)nc1N1CCCC(n2nc(-c3ccc(Oc4ccccc4)cc3)c3c(N)ncnc32)C1 (stereo not shown)
100

Could you please provide reported remaining binding at 1 µM for Cc1cnc(S(C)(=O)=O)nc1N1CCCC(n2nc(-c3ccc(Oc4ccccc4)cc3)c3c(N)ncnc32)C1 (stereo not shown) ? Thanks!
92

State its remaining binding at 1 µM for this compound: CCOC(=O)c1cnc(S(C)(=O)=O)nc1N1CCC[C@@H](n2nc(-c3ccc(Oc4ccccc4)cc3)c3c(N)ncnc32)C1
100

---

- target-of-assay: ABL1(F317I)-phosphorylated (Homo sapiens, UniProt P00519, F317I)
- Construct: purchased Eurofins DiscoverX KINOMEscan (scanTK)
- Sequence (P00519 whole entry F317I): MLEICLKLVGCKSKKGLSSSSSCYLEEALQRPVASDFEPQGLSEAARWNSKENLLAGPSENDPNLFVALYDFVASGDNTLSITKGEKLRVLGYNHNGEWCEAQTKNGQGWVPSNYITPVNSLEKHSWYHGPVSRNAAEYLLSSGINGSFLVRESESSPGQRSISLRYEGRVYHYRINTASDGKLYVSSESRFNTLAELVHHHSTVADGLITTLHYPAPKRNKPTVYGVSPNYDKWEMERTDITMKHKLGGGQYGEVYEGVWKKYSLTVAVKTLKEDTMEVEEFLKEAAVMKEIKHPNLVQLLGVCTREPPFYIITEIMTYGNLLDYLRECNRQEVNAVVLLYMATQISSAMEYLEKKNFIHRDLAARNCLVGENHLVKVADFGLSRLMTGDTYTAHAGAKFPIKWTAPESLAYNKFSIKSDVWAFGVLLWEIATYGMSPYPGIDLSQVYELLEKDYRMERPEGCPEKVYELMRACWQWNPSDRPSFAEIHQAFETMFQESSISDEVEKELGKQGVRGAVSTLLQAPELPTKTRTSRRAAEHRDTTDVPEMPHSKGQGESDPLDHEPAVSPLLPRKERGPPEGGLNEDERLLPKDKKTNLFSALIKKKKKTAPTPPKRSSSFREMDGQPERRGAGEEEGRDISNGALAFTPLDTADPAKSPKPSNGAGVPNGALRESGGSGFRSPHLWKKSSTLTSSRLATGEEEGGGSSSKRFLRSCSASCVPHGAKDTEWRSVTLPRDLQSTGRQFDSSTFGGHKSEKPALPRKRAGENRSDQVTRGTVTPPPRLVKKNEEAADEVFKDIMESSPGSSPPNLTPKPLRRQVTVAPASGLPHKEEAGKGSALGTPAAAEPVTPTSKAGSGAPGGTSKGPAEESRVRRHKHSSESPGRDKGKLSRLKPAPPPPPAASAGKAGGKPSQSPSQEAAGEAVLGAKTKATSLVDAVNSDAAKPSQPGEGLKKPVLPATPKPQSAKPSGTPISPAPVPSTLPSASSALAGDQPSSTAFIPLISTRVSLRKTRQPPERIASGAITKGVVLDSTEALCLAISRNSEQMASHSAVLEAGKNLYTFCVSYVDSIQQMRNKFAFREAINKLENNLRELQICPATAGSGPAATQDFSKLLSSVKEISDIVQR
- assay-notes: KINOMEscan ScanTK
- Assay type: binding
- cond: read-out: %Control @1000nM
Assign remaining binding at 1 µM to each entry below.
Output spec: scalar in %, unitless text.

For the molecule CCOC(=O)c1cnc(S(C)(=O)=O)nc1N1CCC[C@@H](n2nc(-c3ccc(Oc4ccccc4)cc3)c3c(N)ncnc32)C1 , give its reported remaining binding at 1 µM.
88

Give recorded remaining binding at 1 µM. C=CC(=O)N1CCC[C@@H](n2nc(-c3ccc(Oc4ccccc4)cc3)c3c(N)ncnc32)C1 [Compound 1g, Ibrutinib, reference compound]
73

Entry Cc1cnc(S(C)(=O)=O)nc1N1CCCC(n2nc(-c3ccc(Oc4ccccc4)cc3)c3c(N)ncnc32)C1 (centres unmarked) needs its remaining binding at 1 µM filled in; supply it.
90

For CNC(=O)c1cnc(S(C)(=O)=O)nc1N1CCCC(n2nc(-c3ccc(Oc4ccccc4)cc3)c3c(N)ncnc32)C1 (centres unmarked) , write its remaining binding at 1 µM.
90

# return recorded remaining binding at 1 µM for entry COC(=O)c1cnc(S(C)(=O)=O)nc1N1CCCC(n2nc(-c3ccc(Oc4ccccc4)cc3)c3c(N)ncnc32)C1 (centres unmarked)
79

---

- target-of-assay: EGFR(L858R) (Homo sapiens, UniProt P00533, L858R)
- Construct: purchased Eurofins DiscoverX KINOMEscan (scanTK)
- Sequence (P00533 25-1210 L858R): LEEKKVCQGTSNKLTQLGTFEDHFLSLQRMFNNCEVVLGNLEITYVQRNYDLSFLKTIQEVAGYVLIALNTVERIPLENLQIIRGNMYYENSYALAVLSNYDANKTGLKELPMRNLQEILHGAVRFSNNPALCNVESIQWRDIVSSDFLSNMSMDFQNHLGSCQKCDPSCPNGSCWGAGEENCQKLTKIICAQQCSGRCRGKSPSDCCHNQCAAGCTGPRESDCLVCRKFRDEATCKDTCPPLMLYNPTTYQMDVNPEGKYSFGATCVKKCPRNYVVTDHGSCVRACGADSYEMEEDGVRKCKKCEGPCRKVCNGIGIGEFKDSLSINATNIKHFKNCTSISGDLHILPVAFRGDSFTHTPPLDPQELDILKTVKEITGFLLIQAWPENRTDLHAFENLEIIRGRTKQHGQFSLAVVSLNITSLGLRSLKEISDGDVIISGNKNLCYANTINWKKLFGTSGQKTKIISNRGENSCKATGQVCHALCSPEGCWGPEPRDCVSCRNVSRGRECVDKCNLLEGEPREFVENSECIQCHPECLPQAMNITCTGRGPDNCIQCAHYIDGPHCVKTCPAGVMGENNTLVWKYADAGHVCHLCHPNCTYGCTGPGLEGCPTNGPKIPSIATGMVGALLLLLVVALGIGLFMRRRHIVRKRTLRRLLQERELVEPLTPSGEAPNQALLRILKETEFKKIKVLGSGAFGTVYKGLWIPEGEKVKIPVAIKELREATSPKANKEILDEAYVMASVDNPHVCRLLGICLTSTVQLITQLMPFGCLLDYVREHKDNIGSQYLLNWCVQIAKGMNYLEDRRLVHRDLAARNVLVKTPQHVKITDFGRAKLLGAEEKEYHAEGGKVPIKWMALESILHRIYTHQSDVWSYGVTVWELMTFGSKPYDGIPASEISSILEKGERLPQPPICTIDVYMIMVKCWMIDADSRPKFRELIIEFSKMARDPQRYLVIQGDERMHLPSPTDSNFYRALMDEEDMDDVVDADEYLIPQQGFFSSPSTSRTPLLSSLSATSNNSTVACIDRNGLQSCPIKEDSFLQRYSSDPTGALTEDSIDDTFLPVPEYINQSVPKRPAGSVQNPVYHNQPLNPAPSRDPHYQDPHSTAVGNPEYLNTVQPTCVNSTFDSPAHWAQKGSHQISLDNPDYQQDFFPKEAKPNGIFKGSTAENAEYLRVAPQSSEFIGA
- assay-notes: KINOMEscan ScanTK
- Format: binding
- cond: @1000nM, read-out: %Control
For each entry below, report its remaining binding at 1 µM value.
Just the number please, in %, no unit attached.

Look up and state reported remaining binding at 1 µM for CNC(=O)c1cnc(S(C)(=O)=O)nc1N1CCCC(n2nc(-c3ccc(Oc4ccccc4)cc3)c3c(N)ncnc32)C1 (stereo not shown)
41

State its remaining binding at 1 µM: COC(=O)c1cnc(S(C)(=O)=O)nc1N1CCCC(n2nc(-c3ccc(Oc4ccccc4)cc3)c3c(N)ncnc32)C1 (stereo not shown)
74

Given Cc1cnc(S(C)(=O)=O)nc1N1CCCC(n2nc(-c3ccc(Oc4ccccc4)cc3)c3c(N)ncnc32)C1 (stereo not shown) , respond with its remaining binding at 1 µM.
83

For the molecule CCOC(=O)c1cnc(S(C)(=O)=O)nc1N1CCC[C@@H](n2nc(-c3ccc(Oc4ccccc4)cc3)c3c(N)ncnc32)C1 , give its reported remaining binding at 1 µM.
66

---

- target-of-assay: FLT3(D835H) (Homo sapiens, UniProt P36888, D835H)
- Construct: purchased Eurofins DiscoverX KINOMEscan (scanTK)
- Sequence (P36888 27-993 D835H): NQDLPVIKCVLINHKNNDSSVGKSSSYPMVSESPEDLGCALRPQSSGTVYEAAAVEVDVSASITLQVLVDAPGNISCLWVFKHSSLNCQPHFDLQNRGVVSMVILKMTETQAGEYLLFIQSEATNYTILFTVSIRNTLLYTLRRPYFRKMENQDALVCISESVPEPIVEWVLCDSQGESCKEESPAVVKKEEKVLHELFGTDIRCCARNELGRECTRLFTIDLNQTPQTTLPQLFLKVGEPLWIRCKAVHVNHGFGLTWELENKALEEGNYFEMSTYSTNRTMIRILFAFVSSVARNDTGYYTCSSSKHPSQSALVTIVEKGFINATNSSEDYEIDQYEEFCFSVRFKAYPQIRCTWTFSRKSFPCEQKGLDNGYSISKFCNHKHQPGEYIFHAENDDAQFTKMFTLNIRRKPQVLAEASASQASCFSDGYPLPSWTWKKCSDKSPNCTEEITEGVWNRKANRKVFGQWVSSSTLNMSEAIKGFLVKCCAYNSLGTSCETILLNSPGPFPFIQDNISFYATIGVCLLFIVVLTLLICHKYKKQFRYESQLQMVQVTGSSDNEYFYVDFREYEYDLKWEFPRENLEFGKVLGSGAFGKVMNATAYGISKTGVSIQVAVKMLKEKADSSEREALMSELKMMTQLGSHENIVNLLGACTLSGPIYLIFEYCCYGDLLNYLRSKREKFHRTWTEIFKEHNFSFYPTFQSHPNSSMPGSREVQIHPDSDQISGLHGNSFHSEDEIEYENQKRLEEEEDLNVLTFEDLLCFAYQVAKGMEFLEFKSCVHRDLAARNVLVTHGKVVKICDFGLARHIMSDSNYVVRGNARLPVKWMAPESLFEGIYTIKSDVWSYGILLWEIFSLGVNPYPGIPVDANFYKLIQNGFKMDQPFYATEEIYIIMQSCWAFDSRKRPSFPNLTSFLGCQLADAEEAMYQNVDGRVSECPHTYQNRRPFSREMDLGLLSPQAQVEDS
- assay-notes: KINOMEscan ScanTK
- Assay type: binding
- cond: @1000nM, read-out: %Control
// classify: if (remaining binding at 1 µM < 70%) 1 else -1

State whether 70% exceeds remaining binding at 1 µM recorded for CCOC(=O)c1cnc(S(C)(=O)=O)nc1N1CCC[C@@H](n2nc(-c3ccc(Oc4ccccc4)cc3)c3c(N)ncnc32)C1 [Compound 8c] .
-1

Dear colleague, could you confirm whether remaining binding at 1 µM of COC(=O)c1cnc(S(C)(=O)=O)nc1N1CCCC(n2nc(-c3ccc(Oc4ccccc4)cc3)c3c(N)ncnc32)C1 (centres unmarked) [Compound 8b] falls below 70%? Thanks.
-1

Regarding C=CC(=O)N1CCC[C@@H](n2nc(-c3ccc(Oc4ccccc4)cc3)c3c(N)ncnc32)C1 [Compound 1g, Ibrutinib, reference compound] , kindly confirm whether its remaining binding at 1 µM is beneath 70%.
1

Threshold test, remaining binding at 1 µM < 70%: CNC(=O)c1cnc(S(C)(=O)=O)nc1N1CCCC(n2nc(-c3ccc(Oc4ccccc4)cc3)c3c(N)ncnc32)C1 (centres unmarked) [Compound 8d]
-1

---

- target-of-assay: wild-type BTK (Homo sapiens)
- Sequence (Q06187 whole entry): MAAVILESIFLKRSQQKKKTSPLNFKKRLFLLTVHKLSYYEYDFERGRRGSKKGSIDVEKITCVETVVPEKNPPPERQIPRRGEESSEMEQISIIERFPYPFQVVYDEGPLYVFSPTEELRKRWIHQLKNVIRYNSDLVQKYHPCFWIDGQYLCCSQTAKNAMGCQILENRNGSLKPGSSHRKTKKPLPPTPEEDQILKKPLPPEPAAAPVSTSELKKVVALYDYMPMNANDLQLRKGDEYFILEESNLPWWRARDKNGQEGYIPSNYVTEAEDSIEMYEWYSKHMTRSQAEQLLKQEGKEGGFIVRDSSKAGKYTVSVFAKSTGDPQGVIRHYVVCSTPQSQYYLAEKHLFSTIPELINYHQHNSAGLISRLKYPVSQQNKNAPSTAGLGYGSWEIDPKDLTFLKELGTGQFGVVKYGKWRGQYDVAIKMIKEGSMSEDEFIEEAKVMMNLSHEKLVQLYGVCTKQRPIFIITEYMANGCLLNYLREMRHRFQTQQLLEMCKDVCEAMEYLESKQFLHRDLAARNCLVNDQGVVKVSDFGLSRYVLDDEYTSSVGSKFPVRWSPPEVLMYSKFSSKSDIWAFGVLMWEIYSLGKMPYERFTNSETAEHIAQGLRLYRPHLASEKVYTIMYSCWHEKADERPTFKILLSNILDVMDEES
- assay-notes: BTK in vitro activity assay (ADP-Glo, poly-Glu:Tyr phosphorylation, TCEP)
- cond: read-out: Remaining BTK activity (%)
property-label: remaining activity at 0.1 µM (%)
Numbers only here, please. The scale is %.

In one line, give reported remaining activity at 0.1 µM of the entry COC(=O)c1cnc(S(C)(=O)=O)nc1N1CCCC(n2nc(-c3ccc(Oc4ccccc4)cc3)c3c(N)ncnc32)C1 (stereo not shown) [Compound 8b] .
2

Using known records, supply remaining activity at 0.1 µM for CSc1ncc(N2CCCC(n3nc(-c4ccc(Oc5ccccc5)cc4)c4c(N)ncnc43)C2)c(C)n1 (stereo not shown) [Compound 7e]
69

Fill in reported remaining activity at 0.1 µM for this entry: CS(=O)(=O)c1ncc(N2CCC[C@@H](n3nc(-c4ccc(Oc5ccccc5)cc4)c4c(N)ncnc43)C2)cn1 [Compound 9b]
103

Provide remaining activity at 0.1 µM value for the following molecule: CS(=O)(=O)c1ncc(C(=O)N2CCCC(n3nc(-c4ccc(Oc5ccccc5)cc4)c4c(N)ncnc43)C2)cn1 (stereo in doubt) [Compound 5e]
9

---

Provide the reported remaining binding at 1 µM of each item.
- target-of-assay: TNK2 (Homo sapiens)
- Construct: purchased Eurofins DiscoverX KINOMEscan (scanTK)
- Sequence (Q07912 whole entry): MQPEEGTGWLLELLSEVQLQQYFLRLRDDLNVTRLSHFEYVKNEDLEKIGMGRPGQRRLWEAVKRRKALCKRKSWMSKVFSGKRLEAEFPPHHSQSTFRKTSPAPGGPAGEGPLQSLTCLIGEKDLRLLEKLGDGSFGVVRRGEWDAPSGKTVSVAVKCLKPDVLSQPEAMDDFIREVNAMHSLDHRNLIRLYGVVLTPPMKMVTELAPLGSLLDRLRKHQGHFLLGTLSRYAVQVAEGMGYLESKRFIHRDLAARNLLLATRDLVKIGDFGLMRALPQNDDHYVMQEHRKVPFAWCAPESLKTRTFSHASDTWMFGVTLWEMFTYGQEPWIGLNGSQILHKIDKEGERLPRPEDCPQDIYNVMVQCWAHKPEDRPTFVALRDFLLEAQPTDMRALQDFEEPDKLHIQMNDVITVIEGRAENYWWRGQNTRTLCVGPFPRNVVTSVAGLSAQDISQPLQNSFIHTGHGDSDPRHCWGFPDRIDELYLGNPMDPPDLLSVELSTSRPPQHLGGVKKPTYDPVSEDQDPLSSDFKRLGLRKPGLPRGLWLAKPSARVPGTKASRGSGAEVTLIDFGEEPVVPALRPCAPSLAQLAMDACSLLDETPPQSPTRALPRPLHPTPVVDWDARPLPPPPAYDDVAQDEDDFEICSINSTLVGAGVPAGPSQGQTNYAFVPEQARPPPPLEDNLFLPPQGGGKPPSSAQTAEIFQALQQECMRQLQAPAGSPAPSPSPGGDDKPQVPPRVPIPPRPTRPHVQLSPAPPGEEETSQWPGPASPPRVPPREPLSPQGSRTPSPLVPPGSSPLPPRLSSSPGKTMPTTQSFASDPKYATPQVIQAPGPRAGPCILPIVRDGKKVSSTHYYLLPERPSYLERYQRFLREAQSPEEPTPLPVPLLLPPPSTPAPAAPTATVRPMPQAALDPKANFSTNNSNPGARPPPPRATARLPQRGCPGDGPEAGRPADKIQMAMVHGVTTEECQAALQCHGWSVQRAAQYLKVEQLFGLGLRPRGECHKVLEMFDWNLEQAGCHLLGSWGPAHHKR
- assay-notes: KINOMEscan ScanTK
- Type: binding
- cond: read-out: %Control @1000nM

Enter measured remaining binding at 1 µM, system TNK2 (Homo sapiens), for the compound shown: CNC(=O)c1cnc(S(C)(=O)=O)nc1N1CCCC(n2nc(-c3ccc(Oc4ccccc4)cc3)c3c(N)ncnc32)C1 (stereo not shown)
100%

Report value: remaining binding at 1 µM, system: TNK2 (Homo sapiens), compound: COC(=O)c1cnc(S(C)(=O)=O)nc1N1CCCC(n2nc(-c3ccc(Oc4ccccc4)cc3)c3c(N)ncnc32)C1 (stereo not shown)
100%

# return remaining binding at 1 µM for CCOC(=O)c1cnc(S(C)(=O)=O)nc1N1CCC[C@@H](n2nc(-c3ccc(Oc4ccccc4)cc3)c3c(N)ncnc32)C1 , test system: TNK2 (Homo sapiens)
94%

Specify remaining binding at 1 µM for Cc1cnc(S(C)(=O)=O)nc1N1CCCC(n2nc(-c3ccc(Oc4ccccc4)cc3)c3c(N)ncnc32)C1 (stereo not shown) , system TNK2 (Homo sapiens).
96%

src = paper PMC11345841
